tested on: MDA-MB-435 melanoma; assay: NCI-60 one-dose screen, 48 h (100 = growth as untreated, 0 = no growth, -100 = all killed); details: 10 µM unless noted
The panel holds about 83,000 compounds, 20% with a hit somewhere; the sample as a whole holds those more often.
measured-attribute: growth (%)
Numbers only, in %.

1. COc1ccc(/C=C(\C#N)c2cc(OC)c3c(c2)OCO3)cc1 :: -17.6
2. COc1ccc2[nH]c(=O)c3c4ccccc4cn3c2c1 :: -23.3
3. O=C(CSc1nc2ccccc2[nH]1)Nc1ccc(-c2nc3ccccc3s2)c(Cl)c1 :: 13.2
4. COc1ccc(S(=O)(=O)NCCCNc2nccc(-c3c(-c4cccc([N+](=O)[O-])c4)nc4sccn34)n2)cc1 :: 42.1
5. O=c1c2sc3ncccc3c2nnn1-c1ccccc1 :: 101

Dear colleague, could you please provide growth for the compounds listed below?
1. COc1ccc(-n2c(-c3ccccc3)c(-c3ccccc3)c3c(SCC(=O)N/N=C/c4ccc(Cl)cc4)ncnc32)cc1
2. C=COC(=O)CCCCCCCCC
3. Cn1ncc2c(Sc3ccc(Cl)cc3)ncnc21
4. COc1ccc(-c2cnnn2-c2nonc2-n2cccc2)cc1OC
5. COc1ccc(NC(=O)CSc2nc(-c3ccc(OC)c(OC)c3)cc(-c3cc(OC)c(OC)c(OC)c3)n2)cc1
6. Oc1ccc2cc(Br)ccc2c1-c1c(O)ccc2cc(Br)ccc12

98.6
106
92.3
-36.9
112
63.1

Dear colleague, could you please provide growth for the compounds listed below?
1. COc1ccc(-c2cc3c(OC)c(OC)c(OC)cc3oc2=O)cc1
2. C=C[C@@H]1C[C@H](O)Cc2c(C)cc(C)cc2N1
3. COc1cc(NC(N)=NCCC(C)(C)c2ccc(C(F)(F)F)cc2)ncc1C#N
4. CC(=O)OC[C@]12CC[C@H]3[C@@H](C[C@H]4O[C@]45CC=CC(=O)[C@]35C)[C@]1(O)CC[C@@]2(O)[C@@](C)(O)C1CC(C)=C(C)C(=O)O1 (stereo partly specified)
5. COc1cccc(-c2nc3sccn3c2-c2ccnc(NCCCNS(=O)(=O)c3ccc(F)cc3)c2)c1
6. CC1=C(C#N)C(=O)NC(C)C1 (stereo unspecified)

1: -17.1; 2: 99.3; 3: 17; 4: -77.4; 5: 19.1; 6: 107

Dear colleague, could you please provide growth for the compounds listed below?
1. COc1cc(-c2nc(-c3nc4ccc(Cl)cc4[nH]3)cc3c2[nH]c2ccccc23)cc(OC)c1OC
2. CCCCN(CCCC)C(=O)CC
3. COc1ccc2[nH]c(=O)c(/C=N/Nc3nc(-c4ccccc4)cs3)c(O)c2c1
4. COc1cc(/C(C#N)=C/c2ccc3c(c2OC)OCO3)cc2c1OCO2

1: 75.5; 2: 104; 3: 79.3; 4: -39.4

---

tested on: MOLT-4 leukemia; experiment: NCI-60 one-dose screen, 48 h (100 = growth as untreated, 0 = no growth, -100 = all killed); settings: 10 µM unless noted
Compounds without any hit were thinned out: in the full panel of roughly 83,000, 20% have a hit.
Please provide measured growth for the entries that follow.
Answers are plain numbers, in %.

// solved cases for growth follow
1. COC(=O)c1cc(=O)nc(N/N=C/c2ccco2)s1 :: 94.9
2. CCCCC(CC)OC(=O)C(Br)CC (configuration not stated) :: 95.4
3. NNc1cccc(/C=C/c2ccccc2)cc1=O :: 37.6
4. COc1ccc(-c2nc(/C=C3/C(=O)Nc4ccc(F)cc43)c3ccccn23)cc1 :: 91.8
5. O=C(Oc1ccccc1[N+](=O)[O-])C1CCCN1C(=O)OCc1ccccc1 (configuration not stated) :: 83.5
6. COc1ccc(CN2CCc3c(Sc4ccccc4)nc(N)nc3C2=O)c(OC)c1 :: 35.5

Dear colleague, could you please provide growth for the compounds listed below?
1. COc1ccc(-c2c(N)n[nH]c2-c2cc(OC)c3c(c2)OCCO3)cc1
2. O=C(NS(=O)(=O)c1ccccc1)n1cc(-c2ccncc2)c(-c2ccc(Cl)c(O)c2)n1
3. O=C(/C=C/c1cc(-c2ccc3c(c2)OCO3)n[nH]1)c1ccc2c(c1)OCO2
4. O=C(Nc1ccc(NCCN2CCOCC2)nc1)c1ccc([N+](=O)[O-])cc1

1. 61.3
2. 82.7
3. 83.4
4. 118

Dear colleague, could you please provide growth for the compounds listed below?
1. COc1ccc(CCNC2=CC(=O)CCC2)cc1OC
2. O=C1c2ccccc2-c2ccccc2C1(Cl)Cl
3. C=C1CCC2C3(C)COC(C)(C)OC3CCC2(C)C1C/C=C1/C(=O)OCC1Oc1ccccc1OC (configuration not stated)

[76.2, 0.097, 77.7]

---

test system: OVCAR-8 ovarian; assay: NCI-60 one-dose screen, 48 h; conditions: 10 µM unless noted
About 83,000 compounds went through this panel and 20% of them were active in at least one assay; those are over-represented in the sample as a whole. Activity calls are given as the source filed them. How the source made its calls: active means growth percent below 10; inactive means the rest.
Can you answer with just one of these options? active, inactive

# outcome recorded in this test, key = O=C(Nc1cccc(-n2cc(-c3ccncc3)c(-c3ccc(Cl)c(O)c3)n2)c1)Nc1ccc(Cl)c(Cl)c1
inactive

# outcome recorded in this test, key = COc1cc(/C=C/c2cc(/C=C/c3ccc(O)c(OC)c3)n(C(N)=O)n2)ccc1O
active

---

Please provide measured growth for the entries that follow.
system: DU-145 prostate; assay: NCI-60 one-dose screen, 48 h (100 = growth as untreated, 0 = no growth, -100 = all killed); conditions: 10 µM unless noted
Compounds without any hit were thinned out: in the full panel of roughly 83,000, 20% have a hit.
Answers are plain numbers, in %.

1) O=C(Nc1ccc(Cl)c(Cl)c1)NS(=O)(=O)c1cnccc1Oc1ccc(F)cc1 :: 78.5
2) O=S(=O)(NCCNc1nccc(-c2c(-c3cccc(O)c3)nc3sccn23)n1)c1ccc(F)cc1 :: 78.6
3) O=c1[nH]c(Nc2ccc(S(=O)(=O)O)cc2)nc2nc(Nc3ccc(NC(=S)Nc4ccccc4)cc3)nc(-c3ccc(O)cc3O)c12 :: 133
4) C=CCSc1n[nH]c(-c2cccs2)n1 :: 121
5) COc1ccc(/C=C2\Oc3cc(OCCCN4CCCC4)ccc3C2=O)c(OC)c1 :: 71.2
6) COc1cc2c(c(OC)c1OC)-c1ccc(N)c(=O)cc1[C@@H](NC(C)=O)CC2 :: -28.8

Dear colleague, could you please provide growth for the compounds listed below?
1. Cc1cc(N/N=C/c2nc(-c3ccccc3)oc2C)c2cc(Br)ccc2n1
2. CC(C)CSc1nc(NN)c(C#N)c(-c2ccccc2)n1
3. CCN1CCN(c2nc(NNC(=O)c3ccccc3)nc(N3CCN(C(c4ccccc4)c4ccccc4)CC3)n2)CC1
4. c1ccc(-c2nnc(-c3ccccn3)s2)nc1
5. O=C1/C(=C/c2ccc([N+](=O)[O-])cc2)CN(C(=O)CCN2CCC(=NO)CC2)C/C1=C\c1ccc([N+](=O)[O-])cc1
6. COc1ccc(-c2nc(N3CCCC3=O)sc2Br)cc1OC
7. COc1cc(/C=C/C(=O)/C=C/c2cc(OC)c3c(c2)OCO3)cc2c1OCO2

[91.3, 103, 71.9, 110, -8.07, 114, 107]

Dear colleague, could you please provide growth for the compounds listed below?
1. COc1ccc(-n2c(=O)sc3c(Cl)nc(C)nc32)c(OC)c1
2. Cc1ccc(S(=O)(=O)C2=C3C(=C(c4ccccc4)c4ccccc43)CN(S(=O)(=O)c3ccc(C)cc3)C2)cc1

1: 84.3; 2: 68.2

Dear colleague, could you please provide growth for the compounds listed below?
1. Cc1ccc(Cc2c(C=O)nc(N)[nH]c2=O)c2ccccc12
2. COc1cc(-c2nc(-c3nc4ccc(Cl)cc4[nH]3)cc3c2[nH]c2ccccc23)cc(OC)c1OC
3. CCCCCCCCCCCCCCCCCCNC(=O)[C@H]1CSC(c2ccc(OC)cc2O)N1 (stereo not given in full)
4. Cc1ccc(S(=O)(=O)c2nc(-c3ccccc3)oc2S(C)(=O)=O)cc1
5. CCOC(=O)c1ccc(NC(=O)N2CC(C)OC(C)C2)cc1 (stereo not given)

[113, 86.8, 22.5, 30.4, 111]

---

test system: NCI-H322M lung; assay: NCI-60 one-dose screen, 48 h (100 = growth as untreated, 0 = no growth, -100 = all killed); conditions: 10 µM unless noted
About 83,000 compounds went through this panel and 20% of them were active in at least one assay; those are over-represented in the sample as a whole.
measured-attribute: growth (%)
Give bare numbers, in %.

1) COc1ccc(Nc2[nH]n3c(=O)cc(C)nc3c2C(N)=O)c(OC)c1 :: 96

Dear colleague, could you please provide growth for the compounds listed below?
1. CCCCCCCC/C=C/CCCCCCCC1=NC(C)(C)CN1C(C)(C)CO
2. CCN(CC)CCC(CNc1c2ccc(Cl)cc2nc2ccc(OC)cc12)c1ccccc1 (stereo not given)
3. COc1ccc2[nH]c(C(=O)OCc3ccc4c(Cl)cc(Cl)c(O)c4n3)cc2c1
4. COc1ccc(C2C=C(c3ccc(Cl)cc3)N=C3SC=C(C)N32)c(Br)c1 (stereo not given)

58.5
17.5
54.3
55.2

Values from PubChem BioAssay (NCI)
